Test Target: TGF-beta receptor of THP-1 cells
Protocol Notes: biotinylated peptide binding to THP-1 cells
Ends that are not written are not given here.
Measurement Kind: pEC50
// pEC50 here means minus log10 of the molar concentration (mol/L)

Req: Which pEC50 value belongs to HEPKGYHANFC (also: biotinylated (position not given here)) [Biotinylated T2] ?
Resp: 4.52
